Experimental System: RARα (Homo sapiens, UniProt P10276)
Sequence (P10276 1-462): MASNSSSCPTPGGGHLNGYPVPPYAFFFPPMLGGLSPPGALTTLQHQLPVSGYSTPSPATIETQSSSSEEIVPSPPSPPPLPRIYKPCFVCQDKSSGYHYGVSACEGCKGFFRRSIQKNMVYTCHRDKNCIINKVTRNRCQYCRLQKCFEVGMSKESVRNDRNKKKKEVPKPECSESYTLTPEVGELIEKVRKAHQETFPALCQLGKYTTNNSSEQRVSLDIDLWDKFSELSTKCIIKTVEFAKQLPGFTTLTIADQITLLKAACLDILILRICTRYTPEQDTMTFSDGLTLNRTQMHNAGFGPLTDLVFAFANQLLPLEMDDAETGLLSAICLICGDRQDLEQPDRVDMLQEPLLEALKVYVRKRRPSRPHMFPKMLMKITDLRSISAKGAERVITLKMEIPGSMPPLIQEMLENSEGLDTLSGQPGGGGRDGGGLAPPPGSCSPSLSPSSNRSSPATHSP
pKd: −log10 of the molar value.
Quantity Kind: pKd

a = C#Cc1cc(C(=O)Oc2ccc(CC(=O)O)c(F)c2)cc2c1OC(C)(C)CC2(C)C
b = C#CCc1cc(C#Cc2ccc(CC(=O)O)cc2)cc2c1OC(C)(C)CC2(C)C
Exam item: Of the pair a and b , name the member with the lesser recorded pKd. # reply format: chosen label
Marked response: b
(b: 5.14, a: 5.46)

---

Experimental System: RARβ (Homo sapiens, UniProt P10826)
Quantity Kind: Kd

CC(=O)OCOC(=O)Cc1ccc(OC(=O)c2cc(C#N)c3c(c2)C(C)(C)CC(C)(C)O3)cc1F [Compound 33] ... > 10 µM
C#Cc1cc(C(=O)Oc2ccc(CC(=O)O)c(F)c2)cc2c1OC(C)(C)CC2(C)C [Compound 4] ... 6.56 µM
CC1(C)CC(C)(C)c2cc(C(=O)Oc3ccc(CC(=O)O)c(F)c3)cc(C#N)c2O1 [Compound 32] ... > 10 µM
C#Cc1cc(C(=O)Oc2ccc(CC(=O)OCOC(C)=O)cc2)cc2c1OC(C)(C)CC2(C)C [Compound 3] ... > 10 µM
C#CCc1cc(C#Cc2ccc(CC(=O)O)cc2)cc2c1OC(C)(C)CC2(C)C [Compound 49] ... > 10 µM

Please look at the following molecule next.
Entry C#Cc1cc(C(=O)Oc2ccc(CC(=O)O)cc2)cc2c1OC(C)(C)CC2(C)C [Compound 1] , RARβ (Homo sapiens, UniProt P10826) data, Kd value: > 10 µM

---

Experimental System: RARα (Homo sapiens, UniProt P10276)
Sequence (P10276 183-417 limits assumed): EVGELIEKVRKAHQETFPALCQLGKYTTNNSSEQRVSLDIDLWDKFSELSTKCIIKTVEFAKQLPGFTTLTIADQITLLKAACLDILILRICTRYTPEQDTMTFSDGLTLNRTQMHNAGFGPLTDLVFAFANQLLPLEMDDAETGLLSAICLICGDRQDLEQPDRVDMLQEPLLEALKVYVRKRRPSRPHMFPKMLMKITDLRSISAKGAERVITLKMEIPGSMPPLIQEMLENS
Assay Text: chimeric receptor transactivation assay, RARα
Assay Conditions: first item of cell EC50/(EFFICACY)/Kd, read-out: RAR α EC50
Quantity Kind: pEC50
Bear in mind: pEC50 is minus log10 of a mol/L concentration; give just that figure.

Recorded result, C#Cc1cc(C#Cc2ccc(CC(=O)O)cc2)cc2c1OC(C)(C)CC2(C)C [Compound 40] , pEC50: 6.89

---

Experimental System: RARγ (Homo sapiens)
Sequence (P13631 185-419 limits assumed): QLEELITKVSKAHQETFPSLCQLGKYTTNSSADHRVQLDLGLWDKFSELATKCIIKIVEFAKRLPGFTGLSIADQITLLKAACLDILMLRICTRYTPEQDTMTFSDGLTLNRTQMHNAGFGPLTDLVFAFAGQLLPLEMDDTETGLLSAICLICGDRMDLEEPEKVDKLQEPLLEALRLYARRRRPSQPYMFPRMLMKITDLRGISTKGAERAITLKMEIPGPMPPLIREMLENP
Assay Text: chimeric receptor transactivation assay, RARγ
Assay Conditions: first item of cell EC50/(EFFICACY)/Kd, read-out: RAR γ EC50
Excerpt: Assays described below measure the ability of a compound to bind to, and/or activate various retinoid receptor subtypes. When in these assays a compound binds to a given receptor subtype and activates the transcription of a reporter gene through that subtype, then the compound is considered an agonist of that receptor subtype. […]
Quantity Kind: EC50 (nM)
Give just the number in nM; leave the unit off.

The reported value for "C#Cc1cc(C#Cc2ccc(CC(=O)O)cc2)cc2c1OC(C)(C)CC2(C)C" in terms of EC50 is 149

---

Experimental System: P450RAI-1 (Homo sapiens, UniProt O43174)
Sequence (O43174 whole entry): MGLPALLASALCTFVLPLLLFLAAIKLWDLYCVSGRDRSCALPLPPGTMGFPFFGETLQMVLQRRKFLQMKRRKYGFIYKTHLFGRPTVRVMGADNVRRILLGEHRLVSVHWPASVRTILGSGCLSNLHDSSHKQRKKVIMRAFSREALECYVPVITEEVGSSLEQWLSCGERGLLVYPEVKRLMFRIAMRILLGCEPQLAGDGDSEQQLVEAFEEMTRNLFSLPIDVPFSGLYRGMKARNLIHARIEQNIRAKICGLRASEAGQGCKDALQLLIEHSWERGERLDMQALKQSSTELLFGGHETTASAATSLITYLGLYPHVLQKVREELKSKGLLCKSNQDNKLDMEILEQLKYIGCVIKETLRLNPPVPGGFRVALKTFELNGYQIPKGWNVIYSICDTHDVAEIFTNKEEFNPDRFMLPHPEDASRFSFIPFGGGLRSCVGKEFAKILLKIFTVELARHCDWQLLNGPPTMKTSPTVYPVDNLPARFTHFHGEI
Assay Text: P450RAI-1 cell-based inhibitor assay ([3H]-RA metabolism, intact cells)
Assay Conditions: P450RAI-1 stably transfected HeLa cells, 3 hours at 37° C., all-trans-RA metabolism; read-out: P450RAI INHIBITION DATA RAI-1 Intact cells IC50
Quantity Kind: IC50 (nM)

C#Cc1cc(C(=O)Oc2ccc(CC(=O)OCOC(C)=O)cc2)cc2c1OC(C)(C)CC2(C)C ... 500
C#CCc1cc(C#Cc2ccc(CC(=O)O)cc2)cc2c1OC(C)(C)CC2(C)C ... 18
C#Cc1cc(C(=O)Oc2ccc(CC(=O)O)cc2)cc2c1OC(C)(C)CC2(C)C ... 500
CC(=O)OCOC(=O)Cc1ccc(OC(=O)c2cc(C#N)c3c(c2)C(C)(C)CC(C)(C)O3)cc1F ... 100

A = C#Cc1cc(C#Cc2ccc(CC(=O)O)cc2)cc2c1OC(C)(C)CC2(C)C
B = CC1(C)CC(C)(C)c2cc(C(=O)Oc3ccc(CC(=O)O)c(F)c3)cc(C#N)c2O1
C = C#Cc1cc(C#Cc2ccc(CC(=O)O)c(F)c2)cc2c1OC(C)(C)CC2(C)C
D = C#Cc1cc(C(=O)Oc2ccc(CC(=O)OCC)cc2)cc2c1OC(C)(C)CC2(C)C
Exam item: # rank by IC50, ascending (min first) Record the ranking as a list of labels in the requested order.
Marked response: C, A, B, D
(C: 4 nM, A: 10 nM, B: 100 nM, D: 6000 nM)

---

Experimental System: P450RAI-2 (Homo sapiens)
Sequence (Q9NR63 whole entry): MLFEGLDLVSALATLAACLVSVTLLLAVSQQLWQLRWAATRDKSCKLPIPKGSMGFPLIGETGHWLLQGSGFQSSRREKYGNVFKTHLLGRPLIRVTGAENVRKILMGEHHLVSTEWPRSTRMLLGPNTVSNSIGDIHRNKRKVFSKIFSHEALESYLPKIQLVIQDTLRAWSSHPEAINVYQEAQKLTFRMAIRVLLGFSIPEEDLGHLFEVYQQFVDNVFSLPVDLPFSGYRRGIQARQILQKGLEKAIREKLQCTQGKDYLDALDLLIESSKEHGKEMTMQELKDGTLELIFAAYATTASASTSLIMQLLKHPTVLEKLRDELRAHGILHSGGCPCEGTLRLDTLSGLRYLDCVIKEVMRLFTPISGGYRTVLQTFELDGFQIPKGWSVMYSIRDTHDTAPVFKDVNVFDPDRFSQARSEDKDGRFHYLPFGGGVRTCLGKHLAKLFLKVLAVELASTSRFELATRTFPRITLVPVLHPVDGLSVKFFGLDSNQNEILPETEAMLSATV
Assay Text: P450RAI-2 cell-based inhibitor assay ([3H]-RA metabolism, intact cells)
Assay Conditions: P450RAI-2 stably transfected HeLa cells, 3 hours at 37° C., all-trans-RA metabolism; read-out: P450RAI INHIBITION DATA RAI-2 Intact Cells IC50
Method: FIG. 1 is a schematic representation of the P450RAI cell based assay utilized to evaluate the ability of the compounds of the invention to inhibit the Cytochrome P450RAI enzyme. P450RAI-1 and P450RAI-2 Cell-Based Inhibitor Assay: P450RAI-1 stably transfected HeLa cells, or P450RAI-2 stably transfected HeLa cells, as applicable, are maintained in […] tissue culture dishes in Modified Eagle's Medium (MEM) containing 10% Fetal Bovine Serum (FBS) and 100 μg/ml hygromycin. […]
pIC50: −log10 of the molar value.
Quantity Kind: pIC50

// worked examples, pIC50 included
C#Cc1cc(C#Cc2ccc(CC(=O)O)c(F)c2)cc2c1OC(C)(C)CC2(C)C ... 8.40
C#Cc1cc(C(=O)Oc2ccc(CC(=O)OCC)cc2)cc2c1OC(C)(C)CC2(C)C ... 5.22
C#Cc1cc(C(=O)Oc2ccc(CC(=O)OCOC(C)=O)c(F)c2)cc2c1OC(C)(C)CC2(C)C ... 7.52
C#Cc1cc(C(=O)Oc2ccc(CC(=O)O)c(F)c2)cc2c1OC(C)(C)CC2(C)C ... 7.22
C#Cc1cc(C#Cc2ccc(CC(=O)O)cc2)cc2c1OC(C)(C)CC2(C)C ... 8.15

a = CC1(C)CC(C)(C)c2cc(C(=O)Oc3ccc(CC(=O)O)c(F)c3)cc(C#N)c2O1
b = C#CCc1cc(C#Cc2ccc(CC(=O)O)cc2)cc2c1OC(C)(C)CC2(C)C
Exam item: Parameter check: reported pIC50 is higher for which label, a or b ? # respond with the chosen item's label
Marked response: b
(b: 6.92, a: 6.05)

A = CC(=O)OCOC(=O)Cc1ccc(OC(=O)c2cc(C#N)c3c(c2)C(C)(C)CC(C)(C)O3)cc1F
B = C#Cc1cc(C(=O)Oc2ccc(CC(=O)OCOC(C)=O)cc2)cc2c1OC(C)(C)CC2(C)C
Exam item: Two entries are listed, A and B . Which one carries the higher pIC50? Write the label of whichever entry you select.
Marked response: B
(B: 7.10, A: 6.15)

---

Experimental System: RARβ (Homo sapiens, UniProt P10826)
Assay Text: chimeric receptor transactivation assay, RARβ
Assay Conditions: first item of cell EC50/(EFFICACY)/Kd, read-out: RAR β EC50
Sequence (P10826 183-417 limits assumed): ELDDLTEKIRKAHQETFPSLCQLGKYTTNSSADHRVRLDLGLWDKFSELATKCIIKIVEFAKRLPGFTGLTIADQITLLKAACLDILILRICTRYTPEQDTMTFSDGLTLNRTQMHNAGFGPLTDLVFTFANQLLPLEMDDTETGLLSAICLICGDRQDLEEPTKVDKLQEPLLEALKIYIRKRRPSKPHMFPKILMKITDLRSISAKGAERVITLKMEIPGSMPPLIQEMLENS
Quantity Kind: EC50 (µM)

I = C#Cc1cc(C(=O)Oc2ccc(CC(=O)O)c(F)c2)cc2c1OC(C)(C)CC2(C)C [Compound 4]
II = C#Cc1cc(C#Cc2ccc(CC(=O)O)cc2)cc2c1OC(C)(C)CC2(C)C [Compound 40]
Exam item: Pick one: I or II . Which one has the lower reported EC50? To answer, give the label that identifies your chosen option.
Marked response: II
(II: 0.101 µM, I: 0.263 µM)
